target: T1, human γc on cells (KHYG-1, Ramos, HPB-ALL, Jurkat, PBMC) (human) (UniProt P31785)
T1 sequence (looked up): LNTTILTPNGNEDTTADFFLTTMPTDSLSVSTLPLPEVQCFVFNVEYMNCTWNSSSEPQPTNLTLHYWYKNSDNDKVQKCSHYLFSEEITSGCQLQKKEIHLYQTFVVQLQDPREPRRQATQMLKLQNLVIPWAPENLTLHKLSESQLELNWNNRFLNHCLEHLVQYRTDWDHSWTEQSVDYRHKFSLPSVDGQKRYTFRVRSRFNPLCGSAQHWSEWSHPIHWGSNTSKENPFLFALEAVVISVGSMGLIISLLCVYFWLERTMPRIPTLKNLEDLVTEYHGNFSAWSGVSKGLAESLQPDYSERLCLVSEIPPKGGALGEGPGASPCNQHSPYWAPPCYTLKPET
experimentDescription: cell-based or functional assay
reportedMetric: p-STAT5 inhibition (%), IL-15 induced, KHYG-1 NK cells, flow cytometry

INSERT INTO measurements (binder, readoutunits, readoutnumber) VALUES
  ('SM-05E anti-γc ScFv (scFv, part only; not given: linker and E-tag, not shown: small tags and cut ends) scFv (part 1 of 2), part: EVHLQQSGPELVKPGASVKIFCKTSGYTFTEYTMHWVKQSHGESLEWIGGIDPNTGGVTYNQKFKGKATLTADKSSSTAYMELRSLTSEDSAVYYCARRRRYYGYALDYWGQGTSVTVSS scFv (part 2 of 2), part: DVLMTQTPLSLPVSLGDQASISCRSSQSIVHSNGNTYLEWYLQKPGQSPKLLIYKVSNRFSGVPDRFSGSGSGTDFTLKISSVEAEDLGVYFCSQSTHVPFMFGSGTKLEIKR', '%', 47.8),
  ('SM-05B anti-γc ScFv (scFv, part only; not given: linker and E-tag, not shown: small tags and cut ends) scFv (part 1 of 2), part: QVQLQQSGPELVKPGASVKIFCKTSGYTFTEYTMHWVKQSHGESLEWIGGIDPNTGGATYNQKFKGKATLTADKSSSTAYMELRSLTSEDSAVYYCARRRRYYGYALDYWGQGTSVTVSS scFv (part 2 of 2), part: DVLMTQTPLSLPVSLGDQASISCRSSQSIVHSNGNTYLEWYLQKPGQSPKLLIYKVSNRFSGVPDRFSGSGSGTDFTLKISRVEAEDLGVYFCSQSTHVPWTFGGGTKLEIKR', '%', 47.1),
  ('SM-05F anti-γc ScFv (scFv, part only; not given: linker and E-tag, not shown: small tags and cut ends) scFv (part 1 of 2), part: EVQLQQSGPELVKPGASVKIFCKTSGYTFTEYTMHWVKQSHGESLEWIGGIDPNTGGVTYNQKFKGKATLTADKSSSTAYMELRSLTSEDSAVYYCARRRRYYGYALDYWGQGTSVTVSS scFv (part 2 of 2), part: DVLMTQTPLSLPVSLGDQASISCRSSQSIVHNNGNTYLEWYLQKPGQSPKLLIYKVSNRFFGVPDRFSGSGSGTYFTLKISRVEAEDLGVYYCFQGSHVPWTFGGGTKLEIKR', '%', 43.7);

The reported measurements were obtained from patent US20260209365A1.
